pIC50: −log10 of the molar value.
Here's what we have: pIC50 numbers for NAD-dependent protein deacylase sirtuin-5, mitochondrial (Homo sapiens, UniProt Q9NXA8).

{"entrySmiles": "O=C(O)CCNC(=S)NCCCNc1nc(Nc2ccccc2Cl)ncc1C(=O)N1CCC(c2ccccc2)CC1", "pIC50": 5.45}
{"entrySmiles": "CCOC(=O)c1cnc(Nc2c(C)cccc2C)nc1NCCCNC(=S)NCCC(=O)O", "pIC50": 5.50}
{"entrySmiles": "CCOC(=O)c1cnc(Nc2ccccc2OC)nc1NCCCNC(=S)NCCC(=O)O", "pIC50": 4.97}

====

// values below are reported IC50
molecular target: NAD-dependent protein deacylase sirtuin-5, mitochondrial (Homo sapiens, UniProt Q9NXA8)
Sequence (Q9NXA8 whole entry): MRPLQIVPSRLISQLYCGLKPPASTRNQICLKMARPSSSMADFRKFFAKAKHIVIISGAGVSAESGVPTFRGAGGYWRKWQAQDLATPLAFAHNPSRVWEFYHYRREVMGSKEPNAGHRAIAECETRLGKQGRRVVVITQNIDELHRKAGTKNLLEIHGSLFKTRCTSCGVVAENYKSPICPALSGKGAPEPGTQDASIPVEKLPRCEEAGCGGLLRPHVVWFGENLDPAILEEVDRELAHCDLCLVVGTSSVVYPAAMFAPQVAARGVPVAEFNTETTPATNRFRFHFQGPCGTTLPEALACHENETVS
readoutLabel: IC50 (µM)

{"entrySmiles": "O=C(O)CCNC(=S)NCCCNc1nc(Nc2ccccc2Cl)ncc1C(=O)Nc1cccc2ccccc12", "readoutLabel": "IC50", "recordedResult": 2.95}
{"entrySmiles": "O=C(O)CCNC(=S)NCCCNc1nc(Nc2ccccc2Cl)ncc1C(=O)N[C@H]1CCCC[C@@H]1O", "readoutLabel": "IC50", "recordedResult": 8.95}
{"entrySmiles": "CCOC(=O)c1cnc(Nc2ccccc2-c2ccccc2)nc1NCCCNC(=S)NCCC(=O)O", "readoutLabel": "IC50", "recordedResult": 3.98}
{"entrySmiles": "O=C(O)CCNC(=S)NCCCNc1nc(Nc2ccccc2Cl)ncc1C(=O)Nc1ccccc1", "readoutLabel": "IC50", "recordedResult": 3.18}
{"entrySmiles": "O=C(O)CCNC(=S)NCCCNc1nc(Nc2ccccc2Cl)ncc1C(=O)N[C@@H]1C[C@H]1c1ccccc1", "readoutLabel": "IC50", "recordedResult": 2.54}
